assay: In vivo penetration through the skin of intact hairless mice, plasma levels by HPLC; details: 20% solution in 1 mL of isopropanol on 10 cm^2 of the backs of hairless mice; transdermal
Answer each item with its documented time to peak levels after application of the donor systems.

So what's the measured time to peak levels after application of the donor systems for this one? `CCN(CC)CCOC(=O)c1ccccc1Nc1cccc(C(F)(F)F)c1`
~50 min

Next entry: `CCN(CC)CCOC(=O)c1cccnc1Nc1cccc(C(F)(F)F)c1C`
~50 min

Consider next the compound `CCN(CC)CCOC(=O)c1ccccc1Nc1cccc(C)c1C` in the same way.
~50 min

For `CCN(CC)CCOC(=O)c1ccccc1Nc1c(Cl)ccc(C)c1Cl` then?
~50 min

Also need `CCN(CC)CCOC(=O)c1cccnc1Nc1cccc(C(F)(F)F)c1` , thanks.
~50 min

---

experiment: Solubility in water; settings: solubility in water
metric_name: solubility

Please look up its solubility: `CCN(CC)CCOC(=O)c1cccnc1Nc1cccc(C(F)(F)F)c1C`
> 450 mg/mL

Further, for `CCN(CC)CCOC(=O)c1cccnc1Nc1cccc(C(F)(F)F)c1` ?
> 450 mg/mL

Consider next the compound `CCN(CC)CCOC(=O)c1ccccc1Nc1c(Cl)ccc(C)c1Cl` in the same way.
> 400 mg/mL

Also check `CCN(CC)CCOC(=O)c1ccccc1Nc1cccc(C)c1C`
> 400 mg/mL

Try the compound `CCN(CC)CCOC(=O)c1ccccc1Nc1cccc(C(F)(F)F)c1`
> 400 mg/mL

Next compound: `CCN(CC)CCNC(=O)c1ccccc1Nc1c(Cl)ccc(C)c1Cl`
400 mg/mL
